Test system: Raw264.7 cells
Experiment: Drug screen and titration: siRNACy3-LN uptake and punctate distribution (Cellomics ArrayScan)
Assay type: cell-based, mouse
Details: 10 μg/mL siRNACy3 in DLinDMA LN, ~10 μM drug, 24 h; total Cy3 intensity normalized to absence of drug
Experimental: Cells were fixed with 3% paraformaldehyde in PBS in the presence of Hoescht for 15 minutes. Cells were rinsed and stored in PBS supplemented with calcium chloride and magnesium sulfate. Plates were scanned and analyzed with the Cellomics ArrayScan VTI.
Where a name gives a salt, the structure may show the parent alone.
Assign Normalized siRNA Uptake to each entry below.
One number for each entry.

See these solved cases before continuing.
{"Molecule": "C[N+]1(C)CCC(=C(c2ccccc2)c2ccccc2)CC1 [Diphemanil methylsulfate]", "Normalized siRNA Uptake": 0.70}
{"Molecule": "CC(COc1ccccc1)NC(C)C(O)c1ccc(O)cc1 (stereo not drawn) [Isoxsuprine HCl, isoxsuprine hydrochloride]", "Normalized siRNA Uptake": 0.51}
{"Molecule": "COc1cc(C(=O)NCc2ccc(OCCN(C)C)cc2)cc(OC)c1OC [Trimethobenzamide HCl, Trimethobenzamide hydrochloride]", "Normalized siRNA Uptake": 0.70}

Dear colleague, could you send me Normalized siRNA Uptake for each of the items below? Thanks.
1. Cn1c(=O)c2c(ncn2CC(O)CO)n(C)c1=O (stereo not drawn)
2. CC(=O)c1ccc(S(=O)(=O)NC(=O)NC2CCCCC2)cc1 [Acetohexamide]
3. N[C@@H](Cc1ccc(O)c(O)c1)C(=O)O

[1.38, 1.32, 1.28]

----------
Assign Normalized siRNA Uptake to each entry below.
system: Raw264.7 cells; assay: Drug screen and titration: siRNACy3-LN uptake and punctate distribution (Cellomics ArrayScan); type: cell-based, mouse; details: 10 μg/mL siRNACy3 in DLinDMA LN, ~10 μM drug, 24 h; total Cy3 intensity normalized to absence of drug
Structures can show the parent of a compound that is named as a salt.
Give bare numbers.

{"Molecule": "Nc1nc(O)c2[nH]nnc2n1", "Target of assay": "Raw264.7 cells", "Normalized siRNA Uptake": 0.54}
{"Molecule": "CCN(CC)CCCC(C)Nc1ccnc2cc(Cl)ccc12 (centres unmarked)", "Target of assay": "Raw264.7 cells", "Normalized siRNA Uptake": 0.34}
{"Molecule": "Cc1cc(NC(=O)C2=C(O)c3ccccc3S(=O)(=O)N2C)no1", "Target of assay": "Raw264.7 cells", "Normalized siRNA Uptake": 1.42}
{"Molecule": "CC(=O)OCC(=O)[C@@]1(O)CC[C@H]2[C@@H]3CCC4=CC(=O)C=C[C@]4(C)[C@@]3(F)[C@@H](O)C[C@@]21C [Isoflupredone acetate]", "Target of assay": "Raw264.7 cells", "Normalized siRNA Uptake": 0.50}

Here is another molecule to look at.
Report Normalized siRNA Uptake for c1ccc2c(CC3=NCCN3)cccc2c1 [Naphazoline HCl, naphazoline hydrochloride] please.
1.32
